testSystem: FK506-binding protein 12 (human, UniProt P62942 1-108)
Sequence (P62942 whole entry): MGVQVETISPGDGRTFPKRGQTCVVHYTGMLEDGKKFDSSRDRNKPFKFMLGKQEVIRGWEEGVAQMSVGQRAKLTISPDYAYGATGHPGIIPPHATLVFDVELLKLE
testDetails: fluorescence polarisation
Non-standard residues stand in square brackets, D forms with d. *: point of attachment. Dkb = 3,3-dimethyl-2-ketobutyryl, CC(C)(C)C(=O)C(=O)*; d(β3hF) = N[C@@H](CC(=O)O)Cc1ccccc1; Pip = O=C(O)[C@@H]1CCCCN1; Nle = CCCC[C@H](N)C(=O)O
testReadout: IC50

Worked examples follow.
binder	obsValue
cyclo(PA[dA][Dkb][Pip][d(β3hF)]Q) (also: ester bond between residues 3 and 4) [rapalog 11 (R3 Ala, R4 Pro)]	> 100 µM
cyclo(AAK[dA][Dkb][Pip][d(β3hF)]Q) (also: 5 Dkb: ester to 4) [rapalog 12 (R3 Lys, R4 Ala)]	> 100 µM

Please find the next binder below.
## Input I'd like to know its IC50. The binder in question is cyclo(K[Nle][dA][Dkb][Pip][d(β3hF)]Q) (also: ester bond between residues 3 and 4) [rapalog 11 (R3 Nle, R4 Lys)]
## Output > 100 µM
